Recorded TBARS production (Mean) by entry
test system: rat liver microsomes from vitamin E-deficient rats; assay: Inhibition of TBARS production in rat liver microsomes from vitamin E-deficient rats; type: biochemical; details: after 20 minutes incubation with Fe(II)-ADP/ascorbate, normalised to a tocopherol reading of 20; 30 minutes pre-incubation; higher reading = lower protection

>  <molecule>
CCCCCCCCCCCCc1ccc2c(=O)c(O)c(-c3cc(O)c(O)c(O)c3)oc2c1 [compound 9h]

>  <TBARS production (Mean)>
62.1021

$$$$
>  <molecule>
CCCCc1ccc2c(=O)c(O)c(-c3cc(O)c(O)c(O)c3)oc2c1 [9d]

>  <TBARS production (Mean)>
121.743

$$$$
>  <molecule>
CCCCCCCCCCc1ccc2oc(-c3cc(O)c(O)c(O)c3)c(O)c(=O)c2c1 [compound 11g]

>  <TBARS production (Mean)>
81.82

$$$$
>  <molecule>
CC(C)CCCC(C)CCCC(C)CCc1ccc2c(=O)c(O)c(-c3cc(O)c(O)c(O)c3)oc2c1 (stereo not drawn) [compound 9i*]

>  <TBARS production (Mean)>
32.9769

$$$$
>  <molecule>
O=c1c(O)c(-c2cc(O)c(O)c(O)c2)oc2cc(O)ccc12 [Control A]

>  <TBARS production (Mean)>
158.348

$$$$
>  <molecule>
CCCCCCCCCc1cccc2c(=O)c(O)c(-c3cc(O)c(O)cc3O)oc12 [compound 14]

>  <TBARS production (Mean)>
104.4307

$$$$
>  <molecule>
CCCCCCCCc1cc2c(=O)c(O)c(-c3cc(O)c(O)c(O)c3)oc2cc1CC [compound 12]

>  <TBARS production (Mean)>
53.98

$$$$
>  <molecule>
CCc1ccc2c(=O)c(O)c(-c3cc(O)c(O)c(O)c3)oc2c1 [compound 9c]

>  <TBARS production (Mean)>
117.461

$$$$
>  <molecule>
CCCCCCCCc1ccc2c(=O)c(O)c(-c3cc(O)c(O)c(O)c3)oc2c1 [9f]

>  <TBARS production (Mean)>
46.1879

$$$$
